Values compiled from ChEMBL document CHEMBL3632594.

test: Antithrombotic activity in New Zealand white rabbit platelet poor plasma assessed as fibrinogen at 100 uM incubated for 3 mins by coagulometer based assay; format: functional, Oryctolagus cuniculus
Form field: Activity (one value per entry).
All answers are understood in g/L, so give the number only.

Take a look at these entries with their results.
| compound | Activity [g/L] |
| --- | --- |
| O=C(COc1ccc(-c2cc(=O)c3c(O)c(O)c(O)cc3o2)cc1)N1CCOCC1 | 5.49 |
| CN(C)C(=O)Oc1ccc(-c2cc(=O)c3c(O)c(O)c(O)cc3o2)cc1 | 5.56 |
| O=c1cc(-c2ccc(OCCCN3CCOCC3)cc2)oc2cc(O)c(O)c(O)c12 | 5.42 |

In: Any idea what its Activity is? The compound is CN1CCN(C(=O)Oc2ccc(-c3cc(=O)c4c(O)c(O)c(O)cc4o3)cc2)CC1
Out: 5.42

----------
experiment: Antithrombotic activity in New Zealand white rabbit platelet poor plasma assessed as fibrinogen at 100 uM incubated for 3 mins by coagulometer based assay; assay type: functional, Oryctolagus cuniculus
readout_label: Activity (g/L)
All answers are understood in g/L, so give the number only.

Take a look at these entries with their results.
| molecule | units_label | Activity |
| --- | --- | --- |
| CN(C)C(=O)COc1ccc(-c2cc(=O)c3c(O)c(O)c(O)cc3o2)cc1 | g/L | 5.14 |
| CCN(CC)C(=O)Oc1ccc(-c2cc(=O)c3c(O)c(O)c(O)cc3o2)cc1 | g/L | 5.21 |
| O=c1cc(-c2ccc(O)cc2)oc2cc(O)c(O)c(O)c12 [SCUTELLAREIN] | g/L | 6.84 |
| CC(C)N(C(=O)Oc1ccc(-c2cc(=O)c3c(O)c(O)c(O)cc3o2)cc1)C(C)C | g/L | 5.65 |
| CCN(CC)CCOc1ccc(-c2cc(=O)c3c(O)c(O)c(O)cc3o2)cc1 | g/L | 5.72 |

Next, consider the following molecule.
In: Any idea what its Activity is? The molecule is CN(C)CCOc1ccc(-c2cc(=O)c3c(O)c(O)c(O)cc3o2)cc1
Out: 5.11

----------
assay: Antithrombotic activity in New Zealand white rabbit platelet poor plasma assessed as increase in prothrombin time at 100 uM incubated for 3 mins by coagulometer based assay; assay type: functional, Oryctolagus cuniculus
readout_label: PT (s)
All answers are understood in s, so give the number only.

| chemical_smiles | readout_label | units_label | value_measured |
| --- | --- | --- | --- |
| CN(C)CCOc1ccc(-c2cc(=O)c3c(O)c(O)c(O)cc3o2)cc1 | PT | s | 6.82 |
| CN(C)CCCOc1ccc(-c2cc(=O)c3c(O)c(O)c(O)cc3o2)cc1 | PT | s | 6.15 |
| CCN(CC)C(=O)Oc1ccc(-c2cc(=O)c3c(O)c(O)c(O)cc3o2)cc1 | PT | s | 7.67 |

In: Any idea what its PT is? The compound is CCN(CC)C(=O)COc1ccc(-c2cc(=O)c3c(O)c(O)c(O)cc3o2)cc1
Out: 7.45

In: Any idea what its PT is? The compound is O=c1cc(-c2ccc(OCCCN3CCOCC3)cc2)oc2cc(O)c(O)c(O)c12
Out: 6.63

In: Any idea what its PT is? The compound is O=c1cc(-c2ccc(O)cc2)oc2cc(O)c(O)c(O)c12
Out: 5.93

----------
Form field: PT (one value per entry).
test: Antithrombotic activity in New Zealand white rabbit platelet poor plasma assessed as increase in prothrombin time at 100 uM incubated for 3 mins by coagulometer based assay; type: functional, Oryctolagus cuniculus
All answers are understood in s, so give the number only.

| chemical_smiles | units_label | PT |
| --- | --- | --- |
| O=C(O)[C@H]1O[C@@H](Oc2cc3oc(-c4ccc(O)cc4)cc(=O)c3c(O)c2O)[C@H](O)[C@@H](O)[C@@H]1O | s | 6.28 |
| CN(C)C(=O)COc1ccc(-c2cc(=O)c3c(O)c(O)c(O)cc3o2)cc1 | s | 7.17 |
| CCN(CC)CCOc1ccc(-c2cc(=O)c3c(O)c(O)c(O)cc3o2)cc1 | s | 6.9 |
| CN1CCN(C(=O)Oc2ccc(-c3cc(=O)c4c(O)c(O)c(O)cc4o3)cc2)CC1 | s | 7.03 |
| CC(C)N(C(=O)Oc1ccc(-c2cc(=O)c3c(O)c(O)c(O)cc3o2)cc1)C(C)C | s | 7.97 |
| O=C(COc1ccc(-c2cc(=O)c3c(O)c(O)c(O)cc3o2)cc1)N1CCOCC1 | s | 7.33 |
| O=c1cc(-c2ccc(OCCN3CCOCC3)cc2)oc2cc(O)c(O)c(O)c12 | s | 6.7 |
| O=C(Oc1ccc(-c2cc(=O)c3c(O)c(O)c(O)cc3o2)cc1)N1CCOCC1 | s | 8.55 |

Next, consider the following compound.
In: Any idea what its PT is? The compound is CN(C)C(=O)Oc1ccc(-c2cc(=O)c3c(O)c(O)c(O)cc3o2)cc1
Out: 8.1

----------
experiment: Antioxidant activity assessed as DPPH radical scavenging by spectrophotometric analysis; assay type: physicochemical
readout_label: pIC50
The scale used: pIC50 is minus the common logarithm of the concentration in molar units.

| molecule | value_measured |
| --- | --- |
| CN(C)C(=O)Oc1ccc(-c2cc(=O)c3c(O)c(O)c(O)cc3o2)cc1 | 4.43 |
| O=C(Oc1ccc(-c2cc(=O)c3c(O)c(O)c(O)cc3o2)cc1)N1CCOCC1 | 4.72 |
| O=c1cc(-c2ccc(OCCCN3CCOCC3)cc2)oc2cc(O)c(O)c(O)c12 | 3.56 |
| CC(C)N(C(=O)Oc1ccc(-c2cc(=O)c3c(O)c(O)c(O)cc3o2)cc1)C(C)C | 4.77 |
| O=c1cc(-c2ccc(O)cc2)oc2cc(O)c(O)c(O)c12 [SCUTELLAREIN] | 4.65 |
| O=C(O)[C@H]1O[C@@H](Oc2cc3oc(-c4ccc(O)cc4)cc(=O)c3c(O)c2O)[C@H](O)[C@@H](O)[C@@H]1O [SCUTELLARIN] | 4.55 |
| CN1CCN(C(=O)Oc2ccc(-c3cc(=O)c4c(O)c(O)c(O)cc4o3)cc2)CC1 | 4.72 |
| CCN(CC)C(=O)COc1ccc(-c2cc(=O)c3c(O)c(O)c(O)cc3o2)cc1 | 4.09 |
| CN(C)CCOc1ccc(-c2cc(=O)c3c(O)c(O)c(O)cc3o2)cc1 | 3.67 |
| CCN(CC)CCOc1ccc(-c2cc(=O)c3c(O)c(O)c(O)cc3o2)cc1 | 3.69 |

Next, consider the following molecule.
In: Any idea what its pIC50 is? The molecule is CN(C)C(=O)COc1ccc(-c2cc(=O)c3c(O)c(O)c(O)cc3o2)cc1
Out: 4.09

----------
assay: Antithrombotic activity in New Zealand white rabbit platelet poor plasma assessed as fibrinogen at 100 uM incubated for 3 mins by coagulometer based assay; assay type: functional, Oryctolagus cuniculus
Form field: Activity (one value per entry).
All answers are understood in g/L, so give the number only.

Take a look at these entries with their results.
| compound | units_label | Activity |
| --- | --- | --- |
| CCN(CC)C(=O)COc1ccc(-c2cc(=O)c3c(O)c(O)c(O)cc3o2)cc1 | g/L | 5.37 |
| O=c1cc(-c2ccc(OCCN3CCOCC3)cc2)oc2cc(O)c(O)c(O)c12 | g/L | 5.23 |
| CN(C)CCCOc1ccc(-c2cc(=O)c3c(O)c(O)c(O)cc3o2)cc1 | g/L | 5.28 |
| O=C(O)[C@H]1O[C@@H](Oc2cc3oc(-c4ccc(O)cc4)cc(=O)c3c(O)c2O)[C@H](O)[C@@H](O)[C@@H]1O [SCUTELLARIN] | g/L | 6.13 |

Next, consider the following compound.
In: Any idea what its Activity is? The compound is O=C(Oc1ccc(-c2cc(=O)c3c(O)c(O)c(O)cc3o2)cc1)N1CCOCC1
Out: 5.52

----------
Form field: IC50 (one value per entry).
test: Antioxidant activity assessed as DPPH radical scavenging by spectrophotometric analysis; format: physicochemical
All answers are understood in µM, so give the number only.

| chemical_smiles | units_label | IC50 |
| --- | --- | --- |
| CCN(CC)C(=O)Oc1ccc(-c2cc(=O)c3c(O)c(O)c(O)cc3o2)cc1 | µM | 32.6 |
| CN(C)CCCOc1ccc(-c2cc(=O)c3c(O)c(O)c(O)cc3o2)cc1 | µM | 231 |
| O=c1cc(-c2ccc(OCCN3CCOCC3)cc2)oc2cc(O)c(O)c(O)c12 | µM | 264 |

Next, consider the following molecule.
In: Any idea what its IC50 is? The molecule is O=C(COc1ccc(-c2cc(=O)c3c(O)c(O)c(O)cc3o2)cc1)N1CCOCC1
Out: 83.3
